- system.tested: Cytochrome P450 3A4 (Homo sapiens)
- Sequence (P08684 whole entry): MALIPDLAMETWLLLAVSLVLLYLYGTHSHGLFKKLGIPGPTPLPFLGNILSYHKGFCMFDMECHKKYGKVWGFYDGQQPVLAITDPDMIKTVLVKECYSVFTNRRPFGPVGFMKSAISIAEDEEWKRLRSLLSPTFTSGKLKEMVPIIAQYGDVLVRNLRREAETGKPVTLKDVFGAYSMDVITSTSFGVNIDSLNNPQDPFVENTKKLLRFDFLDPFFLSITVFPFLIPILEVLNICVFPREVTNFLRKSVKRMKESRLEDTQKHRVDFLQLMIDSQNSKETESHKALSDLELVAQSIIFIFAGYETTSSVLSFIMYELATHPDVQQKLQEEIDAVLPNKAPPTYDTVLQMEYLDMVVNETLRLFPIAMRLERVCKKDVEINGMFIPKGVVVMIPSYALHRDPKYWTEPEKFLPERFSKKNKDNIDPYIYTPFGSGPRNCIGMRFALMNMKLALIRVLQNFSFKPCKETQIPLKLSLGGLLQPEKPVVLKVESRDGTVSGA
- protocol: Inhibition of CYP3A4 (unknown origin) using midazolam as substrate
- Type: ADME
attribute.measured: IC50 (µM)
Provide the reading as a plain figure in µM.

Lab note: need IC50 for COc1cc(-c2ncc(COc3cccc([C@@H](CC(=O)O)C4CC4)c3)nc2CC(C)C)c(F)cn1 on Cytochrome P450 3A4 (Homo sapiens), anyone have it?
8

###

- protocol: Oral bioavailability in dog
- Format: ADME, organism-based, Canis lupus familiaris
- condition.notes: in vivo
attribute.measured: bioavailability
Remember to quote the unit after the number.

Fill blank: measured bioavailability of the compound COc1cc(-c2ncc(COc3cccc([C@@H](CC(=O)O)C4CC4)c3)nc2CC(C)C)c(F)cn1 is ____.
33.6%

###

- protocol: Apparent permeability across apical to basolateral side in human Caco2 cells
- Format: ADME, cell-based
- condition.notes: Caco-2
attribute.measured: Papp A→B

Fill blank: measured Papp A→B of the compound COc1cc(-c2ncc(COc3cccc([C@@H](CC(=O)O)C4CC4)c3)nc2CC(C)C)c(F)cn1 is ____.
40 ×10⁻⁶ cm/s

###

pIC50: −log10 of the molar value.
attribute.measured: pIC50

Lab note: need pIC50 for COc1cc(-c2ncc(COc3cccc([C@@H](CC(=O)O)C4CC4)c3)nc2CC(C)C)c(F)cn1 on Cytochrome P450 2D6 (Homo sapiens), anyone have it?
< 5.00

###

Would you kindly list pEC50 for each of these compounds?
- system.tested: Free fatty acid receptor 1 (Homo sapiens, UniProt O14842)
- Sequence (O14842 whole entry): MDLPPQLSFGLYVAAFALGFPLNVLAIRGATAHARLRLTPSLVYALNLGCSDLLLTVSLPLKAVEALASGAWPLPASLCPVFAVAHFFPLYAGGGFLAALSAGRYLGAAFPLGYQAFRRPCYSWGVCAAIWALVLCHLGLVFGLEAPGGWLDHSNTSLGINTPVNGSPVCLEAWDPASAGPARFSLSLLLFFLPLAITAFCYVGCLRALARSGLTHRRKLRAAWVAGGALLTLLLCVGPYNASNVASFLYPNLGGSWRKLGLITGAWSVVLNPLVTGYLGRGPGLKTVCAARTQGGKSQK
- protocol: Agonist activity at human GPR40 transfected in HEK293 cells assessed as increase in intracellular calcium level incubated for 1 hr by Fluo-8 dye based fluorescence analysis
- Type: functional, cell-based
API: returns pEC50 as number; meaning -log10 of concentration in mol/L.

Fill blank: measured pEC50 of the compound COc1ccc(F)c(-c2ncc(COc3cccc([C@@H](CC(=O)O)C4CC4)c3)cc2C2=CCCC2(C)C)c1 is ____.
7.67

Fill blank: measured pEC50 of the compound COc1ccc(F)c(-c2ncc(COc3cccc([C@@H](CC(=O)O)C4CC4)c3)nc2C=C(C)C)c1 is ____.
8.03

Fill blank: measured pEC50 of the compound CCCCc1nc(COc2cccc([C@@H](CC(=O)O)C3CC3)c2)cnc1-c1cc(OC)ccc1F is ____.
8.60

Fill blank: measured pEC50 of the compound COc1ccc(F)c(-c2cnc(COc3cccc([C@@H](CC(=O)O)C4CC4)c3)nc2C2=CCCC2(C)C)c1 is ____.
7.91

Fill blank: measured pEC50 of the compound COc1ccc(F)c(-c2ncc(COc3cccc([C@@H](CC(=O)O)C4CC4)c3)nc2N2CC3(CCC3)C2)c1 is ____.
8.35

Fill blank: measured pEC50 of the compound COc1ccc(F)c(-c2cnc(COc3cccc([C@@H](CC(=O)O)C4CC4)c3)cc2C2=CCCC2(C)C)c1 is ____.
7.96

Fill blank: measured pEC50 of the compound COc1ccc(F)c(-c2ccc(COc3cccc([C@@H](CC(=O)O)C4CC4)c3)nc2C2=CCCC2(C)C)c1 is ____.
8.03

Fill blank: measured pEC50 of the compound COc1ccc(F)c(-c2ncc(COc3cccc([C@@H](CC(=O)O)C4CC4)c3)nc2OCC(C)C)c1 is ____.
8.02

Fill blank: measured pEC50 of the compound COc1cc(-c2ncc(COc3cccc([C@@H](CC(=O)O)C4CC4)c3)nc2C2=CCCC2(C)C)c(F)cn1 is ____.
7.96

Fill blank: measured pEC50 of the compound COc1ccc(F)c(-c2ccc(COc3cccc([C@@H](CC(=O)O)C4CC4)c3)cc2C2=CCCC2(C)C)c1 is ____.
8.46

Fill blank: measured pEC50 of the compound COc1ccc(F)c(-c2ncc(COc3cccc([C@@H](CC(=O)O)C4CC4)c3)nc2-c2cc(C)cc(C)c2)c1 is ____.
8.12

Origin of values: ChEMBL document CHEMBL4673209
